- EXPERIMENT_SUMMARY: yeast display, Sf9 membrane polyspecificity reagent, FACS + sequencing; frameworks hold sequencing errors
PROPERTY_LABEL: polyreactivity (PSR sort gate)

QVQLVESGGGLVQAGGSLRLSCAASGSIFTEYAMGWYIQAPGKERELVAAISWSGATTYYADSVKGRFTISRDNAKNTVYLQMNSLKPEDTAVYYCAARWANRSYEYWGQGTQVTVSS | low polyreactivity
QVQLVESGGGLVQAGGSLRLSCAASGRNFRRYALGLYRQAPGKERELVAAISSGGSTYYADSVKGRFTISRDNAKNTVYLQMNSLKPEDTAVYYCNAKVGAYLNYGYWGQGTQVTVSS | low polyreactivity
QVQLVESGGGLVQAGGSLRLSCAASGSIFAVYAMGWYRQAPGKERELVASISRTGTTNYADSVKGRFTISRDNAKNTVYLQMNSLKPEDTAVYYCNADAYLYYKYHWGFTFYQYEYWGQGTQVTVSS | low polyreactivity

====

- EXPERIMENT_SUMMARY: yeast display, Sf9 membrane polyspecificity reagent, FACS + sequencing; frameworks hold sequencing errors
PROPERTY_LABEL: polyreactivity (PSR sort gate)

QVQLVESGGGLVQAGGSLRISCAASGFIFYYAMGWYRQAPGKERELVAAISSGSSTYADSVKGRFTISRDNAKNTVYLQMNSMKPEDTAVYYCAAKTQNAYYWGQGTQVTVSS | low polyreactivity
QVQLVESGGGLVQAGGSLRLSCAASGRIFDYYAMGWYRQAPGKERELVAVISGSGGTYYADSVKGRFTISRDNAKNTVYLQMNSLKPEDTAVYYCNAAVTSYPGYEYWGQGTQVTVSS | low polyreactivity
QVQLVESGGGLVQAGGSLRLSCAASGRIFYTNAMGWYRQAPGKERELVAVISWGGDTTYYADSVKGRFTISRDNAKNTVYLQMNSLKPEDTAVYYCKADWGPTYEIYDSWGQGTQVTVSS | low polyreactivity
QVQLVESGGGLVQAGGSLRVSCAASGSTFRHYAMGWSRQAPGKEWELVAAISSTGGSTYYADSVKGRFTISRDNAKNTVYLQMNSLKPEDTAVYYCAARRLYWGQGTQVTVSS | high polyreactivity
QVQLVESGGGLVQAGGSLRLSCPASGRTSVINAMGWYRQAPGKETELVATITWSAASTYYADSVKGRFTISRDNAKNTVYLQMNSLKPEDTAVYYCATDSAQYGYDYWGQGTQVTVSS | low polyreactivity
QVQLVESGGGLVEAGGSLRLSCAASGGTFKLYAMGWYRPAPGKERELVAAISRRGGSTYYADSVKGRFTISRDNAKNTVYLQMNSLKPDDTALSNCAAPGPTQSTQRGGYWGQGTQVTVSS | high polyreactivity
QVQLVESGGGLVQAGGSLRLSCAASGFILNFYAMGWYRQAPGKERELVAAISTSGGSTYYADSVKGRFTISRDNAKNTVYLQMNSLKPEDTAGYYCAARRARTYHTSSGYRGYYYWGQGTQVTVSS | high polyreactivity
QVQLVESDGGIVQAGGSLRLTCAASGIIFGYYVMGWYRQEPGKEGELVASITSGGSTNYADSVKGRFTISRDNAKNTVYLQMNSLKPEDTAVYYCAAEERTDTIACWRYPHDYWGQGTQVTVSS | low polyreactivity
QVQLVESGGGLVQAGGSLRLSCAASGLTFTFYTMGWYRQAPGKERELVAAISIGGSTYYADSVKGRFTISRDNAKNTVYLQMNSLKQEDTAVYYCAAGYSRYYGHWGYYYWGQGTQVTVSS | high polyreactivity
QVQLVESCGGLVQAGGSLRLSCAASGRTFPAYAMGWSRQAPGKERELVAAISSSGSRTYYADSVKGRFTISRDNAKNTVYLQMNSLKQEDTAVYYCAARGGRRQKVNRDDYWGQGTQVTVSS | high polyreactivity
QVQLVESGGGLVQAGGSLRLSCAASGRSFSLYAMGWYRQAPGKERELVASITGSSTYYADSVKGRFTISRDNAKNTVYLQMNSLKPEDTAVYYCNARTSAGAGVDYWGQGTQVTVSS | low polyreactivity

====

- EXPERIMENT_SUMMARY: yeast display, Sf9 membrane polyspecificity reagent, FACS + sequencing; frameworks hold sequencing errors
PROPERTY_LABEL: polyreactivity (PSR sort gate)

QVQLVESGGCLLQAGGSLRLSCAASGFTFRKNAMGWYRDAPGKERQLVAAISSGTSTYYADSVKVRFTISRDNAKNTVYLQMNSLKPEDTAVYYCAAARYRTDDYCGQGTQVTVSS | high polyreactivity
QVQLVESGGGLVQAGGSLRLRCAASGRTIGPYAMGWYRQEPRKERELVAAISWSGGSTYYADSVKGRFTISRDNAKNTVYLQMNSLKPVDTAVYFCAAVYYSHVYYWGQGTQVTVSS | high polyreactivity

====

- EXPERIMENT_SUMMARY: yeast display, Sf9 membrane polyspecificity reagent, FACS + sequencing; frameworks hold sequencing errors
PROPERTY_LABEL: polyreactivity (PSR sort gate)

QVQLVESGGGLVQAGGSLRLSCADSGSIFDGNAMGWYRQAPGKERALVAAISRRGGSTYYADSVKGRFTISRDKAKNTVYLQMNSLKPEDTAVYYCNAYLSYFDGNYWGQGTQVTVSS | high polyreactivity
QVQLVESGGGLLQAGGSLRLSCAASGRIFPYYAMGWYRQAPGKERVLLAAISQSGGRTYYADSVKGRFTISRDNAKNTVFLQMNSLKPEDTAVYYCNADTYSSGYDYWGQGTQVTVSS | high polyreactivity
QVRLVESGGGLVQAGCSLRLSCAASGRTFGRYAIGWYRQAPGTERELVAAITGSGGSTYYADSVKGRFTISRDNAKNTVYLQMNSLKPVDTPVYYCNAGWRLGRGYWGQGTQVTLSS | high polyreactivity

====

- EXPERIMENT_SUMMARY: yeast display, Sf9 membrane polyspecificity reagent, FACS + sequencing; frameworks hold sequencing errors
PROPERTY_LABEL: polyreactivity (PSR sort gate)

QVQLVESGGGLVQAGGSLRLSCAASGIIFDTYAMGWYIQAPGKERELVAAISRSGDTTYYADSVKGRFTISRDNAKNTVYLQMNSLKPEDTAVYYCNARQSRWDKYDYWGQGTQVTVSS | high polyreactivity
QVQLVESGGGLVQAGGSLRLSCSASGRILVLNAMGWYRQAPGTERELVADITSGGSTYYADSVKGRFTISRDNAKNTVYLQMNSLKPEDTAVYYCAADWNTYPDYQQSYFVSYEYNYWGQGTQVTVSS | low polyreactivity
QVQLVESGGGLVQARGSLRLSCAASGRIFGNNAKGWYRQAPGKARELVAAIRRGGSTYYADSVKGRFTISRDNAKITVYLQMNSLKPEETAVYYCAADSSRKHFYWGQGTQVTVSS | high polyreactivity
QVQLVESGGGLVQAGGSLRLSCAASGSTFRRYAMGWYRQAPVKERELVAAITRGGITYYADSVKGRFTISRDNAKNTVYLQMNSLKPEDTAVYYCAATTFGPYALYPRYYYWGQGTQVTVSS | high polyreactivity
QVQLVESGGGLVQAGGRLRISCAASGSIFEGNGMGWYRQAPGKQREFVAAITNRGGSTYYADSVKGRFTISRDNAKNTVYVQMISLKPEDTAVFYCAADWTTNPDYQQSYFVSYEYNYWGHGTQVTVSS | low polyreactivity
QVQLVESGGGLFQAGGTLRLSCAASGRIFVYYAMGWYRQAPGKERELVASITTGGRTYYADSVKGRFTISRDNAKNTVYLQMNSLKPEDTAVYYCAARKYSYTWYDYWGQGTQVTVSS | high polyreactivity
QVQLVESGGGLVQAGGSLRLSCAASGFIFPTNTMGWYRQAPGKEREFVARITRSGTNTYYADSVKGRFTISRDNAKNTVYLQMNSLKPEDTAVYYCARRGTSSYRRYWLDSASNMDYWGQGTQVTVSS | high polyreactivity
QVQLVESGGGLVQAGGSLRLSCAASGRTFPVNAMGWYRQAPAKQSELVATISWSGGSTYYADSVKGRFTISRDNAKNTVYLQMNSLKPEDTAVYYCAALGRHYRYDYWGQGTQVTVSS | low polyreactivity
QVQLVESGGGLVQAGGSLRLSCAASGRTIGVYAMGWYRQAPGKERELVAAISWSGGTTYYADSVKGRFTISRDNAKNTVYLQMNSLKPEDTAVYYCAADSYTEVDYWGQGSQVTVSS | low polyreactivity
QVQLVESGGGLVQAGGSLRLSCAASGITFYGYAMGWYRQAPGQERELVAAISSRGGSTYYADSVKGRFTISRDNAKNTVYLQMNSLKPEDTAVYNCAAVYYTGEYYYWGQGTQVTVSS | high polyreactivity
QVQLVESGGGLVQAGGSLRLSCAASGRTFHYYAMGWYRQAPGKERELVAAISSTGGSTYYADSVKGRFTISRDNAKHPVYVQMNSLKPADTAVYSCAARQFGYYHVRNEYWGQGTQVTVSS | high polyreactivity

====

- EXPERIMENT_SUMMARY: yeast display, Sf9 membrane polyspecificity reagent, FACS + sequencing; frameworks hold sequencing errors
PROPERTY_LABEL: polyreactivity (PSR sort gate)

QVQLVESGGGLVQAGGSLRLSCAASGSISIGYTMGWYRQSPGKERDLVATISWSGGNTYYADSVKGRFTIARDNAKNTVYLQINSLKPEDSAVYYFAARWYYYPLLYDYWGQGTQVTVSS | low polyreactivity
QVQLVESGGGLVQAGGSLRLSCAASGRTFRKYAMGWYRQAPGKERELVAAISWSGGSRYYANSVKGRFTISRDNAKNTVYLQMNSLKPEETAVYYCSAVPVHTGSLYWGFTTGYDYWGQGTQVTVSS | low polyreactivity
QVQLVESGGGLVQAGGSLRLSCAASGRTFIRNVMGWYRQAPGKERELVAAISTRGGSTYYADSVKGRFTISRDIAKNTVYLQMNSMKPEDTAVYYCASVIRCRYSYYEYDYWGQGTQETVSS | high polyreactivity
QVHLVESGGGLVQAGGSLSLSCAASGLNFRTYAMGWYRQAPGKERELVAAISSSGGSTYYADSVKGRFTISRDNAKNTVYLQMNSLKPEDTAVYYCNVGSRRRRYLDRYEYWGQGTQVTVSS | high polyreactivity
QVQLVESGGGLVQAGGSLRLSCAASGRIFGFYAMGWYRQAPGKERELVAAISSRGGRTYYADSVKGRFTISRDNAKNTVYLQMNSLKPEDTAVYYCAAGDGKYGRDGDYWGQGTQVTVSS | high polyreactivity
QVQLVESGGGLVQAGGTLRLSCAASGFIFRKYGMGWYRQAPGKERELVAAIRFTGGSTRYADSVKGRFTISRDNAKNTVYLQMNSLKPEDTAVYYCNADRVYVRGRFTYDYWGQGTQVTVSS | low polyreactivity
QVQLVESGGGLVQAGGSLRLSCAASGFTFPRYAMGWYRQAPGKERELVAAITVGGGRTYYADSVKGRFTISRDNAKNTVYLQMNSLKPEDTAVYYCAADSHASTYDYWGQGTQVTVSS | low polyreactivity
QVQLVESGGGLVQAGGSLRLSCAASGSIFRGNAMGWYRQAPGKERELVASISKGGGSTDYADSVKGRFIISRDNAKNTVYLQMNSLKPEDNAVYYCNKDYDRPDYYYWGQGTQVTVSS | low polyreactivity
QVQLVESWGALVQAGGSLRLSCAASGSTFGYYAMGWYRQAPGKDRELVAAITRSGGSTSYADSVTGRFTISRDNAKNTVYLQMNSLKPEATAVYYCAARFYRPYYARQGYNYWGQGTKVTVSS | high polyreactivity
QVQLVESGGGLVQAGGSLRLSCAASGSIFRRYTMGWYRQAPGKEREFVAVISRDGGSTYYADSVKGRFTISRDNAKNTVYLQMNSLKPEDTAVYYCAARLVRRYDYDYWGQGTQVTVSS | high polyreactivity
QVELQVSGGGLVRAGGSLRLSCAASGNIFDADIMGWYRQAPGKERELVASITGGGSTSYAESAKGRFTISRDNAKNAVYLQMNSLKPEDTAVYYCNAYFIYEGGWYYKAQYDYWGQGTQVTVSS | low polyreactivity
